For each entry below, report its pIC50 value.
- TARGET DESC: Virion infectivity factor (Human immunodeficiency virus type 1 group M subtype B (isolate BH10)) + Virion infectivity factor (Human immunodeficiency virus type 1 group M subtype B (isolate BRU/LAI)) + Virion infectivity factor (Human immunodeficiency virus type 1 group M subtype B (isolate PCV12)) + Virion infectivity factor (Human immunodeficiency virus type 1 group M subtype B (isolate HXB2)) + DNA dC->dU-editing enzyme APOBEC-3G (Homo sapiens) (UniProt P69720+P69721+P69722+P69723+Q9HC16)
- MEASUREMENT NOTES: HIV-1 Vif–A3G interaction blockers – biochemical, TR-FRET, GST-Vif 1-94, biotin-A3G peptide, dose response retest, primary screen (AID 1117319);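 further: Vif residues 1-94 fused to GST binding biotinylated APOBEC3G peptide 110-148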
- MEASUREMENT CONTEXT: TR-FRET GST-Vif / biotin-A3G peptide binding
Records with an inconclusive call do not appear.
Remember the convention: pIC50 equals -log10 of concentration in molar.

Q: Consider the compound Cc1cccc(N2C(=O)NC(=O)/C(=C/c3cc4c(cc3[N+](=O)[O-])OCO4)C2=O)c1 and give its measured pIC50.
A: 4.23

Q: Consider the compound O=C(O)CC1OCC=C2CN3CCC45C6=CC(=O)C(=O)C([N+](=O)[O-])=C6NC4C1C2CC35 (stereo not given) and give its measured pIC50.
A: 4.79

Q: Consider the compound O=C1NC(=O)N(c2ccccc2)C(=O)/C1=C\C=C\c1ccccc1 and give its measured pIC50.
A: 4.38

Q: Consider the compound O=C(O)c1ccc(-n2cccc2/C=C2/NC(=O)N(c3ccccc3)C2=O)cc1 and give its measured pIC50.
A: 5.48

Q: Consider the compound NS(=O)(=O)c1ccc2c(c1)C1C=CCC1C(C1CC=CCC1)N2 (stereo not given) and give its measured pIC50.
A: 5.47

Q: Consider the compound O=c1ccc2c(-c3ccccc3S(=O)(=O)O)c3ccc(O)c(O)c3oc-2c1O and give its measured pIC50.
A: 6.47

Q: Consider the compound O=C1NC(=O)N(c2cccc(Cl)c2)C(=O)/C1=C\c1ccc(Sc2nc3ccccc3[nH]2)o1 and give its measured pIC50.
A: 5.00

Q: Consider the compound O=C1CC(=O)N(Cc2ccco2)C(=O)N1 and give its measured pIC50.
A: 5.35

Q: Consider the compound O=C(Nc1ccc(Br)cn1)c1coc(=O)c(Br)c1 and give its measured pIC50.
A: 4.89

Q: Consider the compound C=CCSC1=N/C(=C\C=C\c2ccco2)C(=O)S1 and give its measured pIC50.
A: 5.98
